Target: mGlu5 (Rattus norvegicus)
Sequence (P31424 21-1203): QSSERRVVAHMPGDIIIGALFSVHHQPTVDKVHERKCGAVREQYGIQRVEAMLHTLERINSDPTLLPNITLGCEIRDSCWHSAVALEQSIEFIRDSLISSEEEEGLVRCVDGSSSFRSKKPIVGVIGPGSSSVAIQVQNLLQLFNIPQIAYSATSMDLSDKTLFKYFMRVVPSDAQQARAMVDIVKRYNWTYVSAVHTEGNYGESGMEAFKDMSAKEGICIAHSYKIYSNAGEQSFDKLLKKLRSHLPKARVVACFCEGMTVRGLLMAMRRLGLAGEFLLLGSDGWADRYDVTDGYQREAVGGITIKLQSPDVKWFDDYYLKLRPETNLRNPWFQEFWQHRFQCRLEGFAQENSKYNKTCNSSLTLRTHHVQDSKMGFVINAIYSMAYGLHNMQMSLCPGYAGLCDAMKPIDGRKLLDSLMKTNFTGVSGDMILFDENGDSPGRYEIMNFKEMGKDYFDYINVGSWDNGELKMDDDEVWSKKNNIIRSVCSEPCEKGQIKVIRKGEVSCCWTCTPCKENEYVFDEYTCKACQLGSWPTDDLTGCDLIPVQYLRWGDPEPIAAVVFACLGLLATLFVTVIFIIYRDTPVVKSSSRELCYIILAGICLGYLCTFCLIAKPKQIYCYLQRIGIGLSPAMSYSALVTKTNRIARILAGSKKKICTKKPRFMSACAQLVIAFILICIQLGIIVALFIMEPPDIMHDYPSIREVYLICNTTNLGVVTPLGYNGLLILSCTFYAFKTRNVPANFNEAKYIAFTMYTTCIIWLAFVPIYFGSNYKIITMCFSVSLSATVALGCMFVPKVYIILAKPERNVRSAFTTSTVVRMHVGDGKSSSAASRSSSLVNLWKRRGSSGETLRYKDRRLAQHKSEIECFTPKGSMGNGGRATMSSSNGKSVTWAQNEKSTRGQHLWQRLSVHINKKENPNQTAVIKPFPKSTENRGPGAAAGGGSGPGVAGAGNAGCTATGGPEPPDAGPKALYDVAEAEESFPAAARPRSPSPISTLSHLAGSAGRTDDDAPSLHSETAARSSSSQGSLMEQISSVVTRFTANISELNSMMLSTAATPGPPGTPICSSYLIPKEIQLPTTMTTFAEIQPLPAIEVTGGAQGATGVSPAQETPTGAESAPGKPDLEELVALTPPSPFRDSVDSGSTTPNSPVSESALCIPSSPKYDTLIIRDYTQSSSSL
Test: biochemical
Value Kind: pKi
Quick note: pKi means taking -log10 of the concentration in moles per liter.

Please indicate pKi recorded for "Cc1cccc(C=Cc2ccccc2)n1"
6.07

###

Biological target: Group II (mGlu2 + mGlu3) receptors
Assay: Radioligand binding assay at Group II (mGlu2+mGlu3), [3H]LY341495, rat forebrain membranes
Details: rat forebrain, [3H]LY341495
# maps each entry to its Ki

Some entries whose results are on file:
NC1(C(=O)O)CCc2cc(C(=O)O)ccc21 (centres unmarked)	> 10000 nM
Cc1cc(C(=O)O)ccc1[C@H](N)C(=O)O	> 1000 nM
Cc1cccc(C#Cc2ccccc2)n1	> 1000 nM
Cc1cccc(C=Cc2ccccc2)n1	> 10000 nM

Now, please, on to the next compound.
Please indicate Ki recorded for "N[C@](CC1c2ccccc2Oc2ccccc21)(C(=O)O)[C@H]1C[C@@H]1C(=O)O"
4 nM

###

Biological target: mGlu1 (Rattus norvegicus)
Sequence (P23385 19-1199): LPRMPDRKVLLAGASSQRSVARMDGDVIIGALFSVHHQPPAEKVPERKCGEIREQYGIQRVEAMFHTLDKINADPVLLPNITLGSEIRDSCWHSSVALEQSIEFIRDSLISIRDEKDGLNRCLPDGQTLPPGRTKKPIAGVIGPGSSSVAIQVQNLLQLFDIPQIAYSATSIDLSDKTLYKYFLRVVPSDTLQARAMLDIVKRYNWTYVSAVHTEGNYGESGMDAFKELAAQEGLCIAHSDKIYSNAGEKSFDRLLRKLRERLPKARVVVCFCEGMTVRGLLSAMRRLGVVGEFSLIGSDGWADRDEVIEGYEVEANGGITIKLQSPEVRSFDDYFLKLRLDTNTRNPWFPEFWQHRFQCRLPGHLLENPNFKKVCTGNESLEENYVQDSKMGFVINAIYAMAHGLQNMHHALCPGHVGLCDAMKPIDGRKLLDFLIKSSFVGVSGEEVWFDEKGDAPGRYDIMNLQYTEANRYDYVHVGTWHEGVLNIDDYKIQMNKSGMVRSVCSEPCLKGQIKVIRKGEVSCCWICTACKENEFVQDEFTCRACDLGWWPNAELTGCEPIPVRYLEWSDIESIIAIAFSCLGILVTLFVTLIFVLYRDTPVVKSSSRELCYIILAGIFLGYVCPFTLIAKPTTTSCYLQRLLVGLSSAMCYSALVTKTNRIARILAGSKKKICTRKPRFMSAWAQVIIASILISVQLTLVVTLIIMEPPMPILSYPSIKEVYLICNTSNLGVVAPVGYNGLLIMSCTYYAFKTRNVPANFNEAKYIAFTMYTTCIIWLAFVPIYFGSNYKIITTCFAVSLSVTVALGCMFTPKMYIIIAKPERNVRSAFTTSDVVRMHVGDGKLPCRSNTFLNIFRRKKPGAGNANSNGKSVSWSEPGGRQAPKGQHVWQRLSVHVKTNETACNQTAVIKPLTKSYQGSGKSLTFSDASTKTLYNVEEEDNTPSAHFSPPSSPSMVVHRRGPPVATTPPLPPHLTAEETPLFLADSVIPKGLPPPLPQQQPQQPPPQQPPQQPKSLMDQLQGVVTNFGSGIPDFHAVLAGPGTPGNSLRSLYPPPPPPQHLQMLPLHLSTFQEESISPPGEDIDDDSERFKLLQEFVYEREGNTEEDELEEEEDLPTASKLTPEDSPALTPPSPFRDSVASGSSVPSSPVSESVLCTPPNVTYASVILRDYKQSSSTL
Value Kind: pKi
Quick note: pKi means taking -log10 of the concentration in moles per liter.

Fill in pKi for "Cc1cc(C(=O)O)ccc1[C@H](N)C(=O)O" tested with mGlu1 (Rattus norvegicus).
5.22

###

Biological target: Group II (mGlu2 + mGlu3) receptors
Test: Radioligand binding assay at Group II (mGlu2+mGlu3), [3H]LY341495, rat forebrain membranes
Conditions: rat forebrain membranes, saturable binding; read-out: Kd of radioligand binding to mGlu2+mGlu3 subtypes
Value Kind: pKd
Quick note: pKd means taking -log10 of the concentration in moles per liter.

Please indicate pKd recorded for N[C@](CC1c2ccccc2Oc2ccccc21)(C(=O)O)[C@H]1C[C@@H]1C(=O)O [[^3H]LY341495]
8.60
